So I've got a bunch of binders here, and I need their binding intensity values.
target_or_system: T1, human ROR2 expressed on the cell surface (human, UniProt Q01974 34-943)
T1 construct: Endogenous ROR2 of human tumour cell lines; also called cell surface ROR2; ROR2 on tumour cell lines
T1 sequence (Q01974 34-943 limits assumed): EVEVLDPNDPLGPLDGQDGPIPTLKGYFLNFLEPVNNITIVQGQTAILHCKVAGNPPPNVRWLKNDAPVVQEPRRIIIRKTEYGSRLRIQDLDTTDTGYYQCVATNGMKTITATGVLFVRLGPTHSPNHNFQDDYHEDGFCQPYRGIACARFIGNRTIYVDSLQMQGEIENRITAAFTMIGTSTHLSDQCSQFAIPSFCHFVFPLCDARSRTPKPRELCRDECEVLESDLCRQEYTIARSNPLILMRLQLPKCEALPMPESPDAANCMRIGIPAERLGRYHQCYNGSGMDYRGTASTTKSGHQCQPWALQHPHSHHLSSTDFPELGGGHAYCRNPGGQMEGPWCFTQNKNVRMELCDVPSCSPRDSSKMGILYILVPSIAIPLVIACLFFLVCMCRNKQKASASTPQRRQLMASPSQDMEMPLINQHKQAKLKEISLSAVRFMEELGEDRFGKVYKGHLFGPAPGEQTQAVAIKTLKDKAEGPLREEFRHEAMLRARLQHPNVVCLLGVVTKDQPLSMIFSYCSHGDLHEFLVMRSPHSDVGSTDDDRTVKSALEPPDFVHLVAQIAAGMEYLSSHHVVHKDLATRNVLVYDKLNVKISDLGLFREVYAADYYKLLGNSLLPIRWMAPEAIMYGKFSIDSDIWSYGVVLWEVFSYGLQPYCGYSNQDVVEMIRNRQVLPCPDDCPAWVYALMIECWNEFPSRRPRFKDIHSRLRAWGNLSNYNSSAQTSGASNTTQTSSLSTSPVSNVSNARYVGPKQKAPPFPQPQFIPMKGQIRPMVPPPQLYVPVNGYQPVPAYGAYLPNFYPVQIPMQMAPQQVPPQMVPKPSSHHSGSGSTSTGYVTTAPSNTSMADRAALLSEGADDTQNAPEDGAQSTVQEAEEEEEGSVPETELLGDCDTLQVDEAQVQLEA
assay_protocol: flow cytometry, LAN-1 cells (neuroblastoma)
Design: unit not given here
// print number alone

QUERY: What value of measured binding intensity is listed for ROR2-23 full length human IgG1 antibody (antibody, V domains shown, The light chain of clone 023 is labelled kappa; also called clone #23; clone #023 IgG1) VH: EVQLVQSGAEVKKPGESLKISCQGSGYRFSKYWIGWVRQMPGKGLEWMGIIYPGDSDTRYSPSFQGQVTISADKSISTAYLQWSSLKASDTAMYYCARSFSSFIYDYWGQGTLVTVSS VL: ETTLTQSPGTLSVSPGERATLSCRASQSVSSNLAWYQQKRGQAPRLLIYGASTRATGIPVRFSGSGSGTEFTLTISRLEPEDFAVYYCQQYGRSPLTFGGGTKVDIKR ?
RESULT: 34

QUERY: Subsequent entry: ROR2-90 full length human IgG1 antibody (antibody, V domains shown, also called clone #90; antibody #90) VH: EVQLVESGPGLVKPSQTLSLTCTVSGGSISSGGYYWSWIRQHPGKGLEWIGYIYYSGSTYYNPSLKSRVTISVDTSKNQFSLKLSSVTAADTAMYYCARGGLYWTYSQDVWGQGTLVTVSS VL: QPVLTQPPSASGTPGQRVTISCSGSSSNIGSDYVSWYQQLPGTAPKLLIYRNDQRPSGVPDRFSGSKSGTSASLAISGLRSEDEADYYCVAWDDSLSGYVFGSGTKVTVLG
RESULT: 48

QUERY: Subsequent entry: ROR2-240 full length human IgG1 antibody (antibody, V domains shown, also called clone #240 IgG1) VH: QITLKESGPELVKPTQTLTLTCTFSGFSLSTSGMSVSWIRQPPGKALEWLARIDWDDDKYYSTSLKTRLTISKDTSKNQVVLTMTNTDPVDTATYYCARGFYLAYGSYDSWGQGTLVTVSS VL: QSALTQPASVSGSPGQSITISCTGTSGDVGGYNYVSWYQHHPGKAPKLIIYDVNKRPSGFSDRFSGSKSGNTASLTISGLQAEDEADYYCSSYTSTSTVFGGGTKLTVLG
RESULT: 37

QUERY: Subsequent entry: ROR2-27 full length human IgG1 antibody (antibody, V domains shown, also called clone #27; clone #027 IgG1) VH: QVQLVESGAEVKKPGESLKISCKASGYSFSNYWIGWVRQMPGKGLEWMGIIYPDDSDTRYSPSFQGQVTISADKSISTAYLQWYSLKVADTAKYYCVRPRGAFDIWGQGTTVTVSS VL: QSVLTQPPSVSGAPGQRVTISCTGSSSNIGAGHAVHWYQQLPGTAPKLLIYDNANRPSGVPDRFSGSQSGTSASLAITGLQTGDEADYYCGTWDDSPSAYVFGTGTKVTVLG
RESULT: 28

QUERY: Subsequent entry: ROR2-241 full length human IgG1 antibody (antibody, V domains shown) VH: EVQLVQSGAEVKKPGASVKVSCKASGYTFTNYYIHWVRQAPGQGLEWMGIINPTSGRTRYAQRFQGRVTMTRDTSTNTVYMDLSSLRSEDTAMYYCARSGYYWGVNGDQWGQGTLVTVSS VL: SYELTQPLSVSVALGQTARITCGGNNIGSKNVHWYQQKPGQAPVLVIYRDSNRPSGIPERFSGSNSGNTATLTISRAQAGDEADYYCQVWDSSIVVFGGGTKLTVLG
RESULT: 68
